- method-notes: Pharmacokinetics and absorption after IV and oral [14C]eplerenone in the rat
- Type: in vivo
- condition-notes: rat, plasma, iv, 15 mg/kg, plasma clearance (CL) of total eplerenone, IV 15 mg/kg, male rat
observed-property: clearance

[ask] Can you share its clearance? I mean this molecule: COC(=O)[C@@H]1CC2=CC(=O)CC[C@]2(C)[C@@]23O[C@@H]2C[C@@]2(C)[C@@H](CC[C@@]24CCC(=O)O4)[C@H]13 [Eplerenone]
[reply] 16.4 mL/min/kg

----------
- method-notes: Pharmacokinetics and absorption after IV and oral [14C]eplerenone in the rat
- Type: in vivo
- condition-notes: rat, plasma; oral 15 mg/kg, male rats
observed-property: Tmax (min)
Just the number please, in min, no unit attached.

[ask] Can you share its Tmax? I mean this molecule: COC(=O)[C@@H]1CC2=CC(=O)CC[C@]2(C)[C@@]23O[C@@H]2C[C@@]2(C)[C@@H](CC[C@@]24CCC(=O)O4)[C@H]13 [Eplerenone]
[reply] 30

----------
- method-notes: Pharmacokinetics and tolerability in subjects with moderate hepatic impairment vs normal healthy subjects
- Assay type: in vivo, human subjects
- condition-notes: human, in vivo, 400 mg, Single Dose, Moderate; read-out: CL/F, Mean (converted)
observed-property: CL/F (mL/min)
Just the number please, in mL/min, no unit attached.

[ask] Can you share its CL/F? I mean this compound: `COC(=O)[C@@H]1CC2=CC(=O)CC[C@]2(C)[C@@]23O[C@@H]2C[C@@]2(C)[C@@H](CC[C@@]24CCC(=O)O4)[C@H]13`
[reply] 175

----------
- method-notes: Pharmacokinetics and tolerability in subjects with moderate hepatic impairment vs normal healthy subjects
- Format: in vivo, human subjects
- condition-notes: human, in vivo, 400 mg, Single Dose, Moderate Impairment; read-out: AUC (0-lqc), Least Squares Mean
observed-property: AUC(0-t) (ng·h/mL)
Just the number please, in ng·h/mL, no unit attached.

[ask] Can you share its AUC(0-t)? I mean this molecule: `COC(=O)[C@@H]1CC2=CC(=O)CC[C@]2(C)[C@@]23O[C@@H]2C[C@@]2(C)[C@@H](CC[C@@]24CCC(=O)O4)[C@H]13`
[reply] 42800

----------
- method-notes: Pharmacokinetics and tolerability in subjects with moderate hepatic impairment vs normal healthy subjects
- Type: in vivo, human subjects
- condition-notes: human, in vivo, 400 mg, linear kinetics assessment, Moderate Hepatic Impairment; read-out: Multiple Dose AUC (0-24), Least Squares Mean
observed-property: AUC tau at 24 h (ng·h/mL)
Just the number please, in ng·h/mL, no unit attached.

[ask] Can you share its AUC tau at 24 h? I mean this compound: COC(=O)[C@@H]1CC2=CC(=O)CC[C@]2(C)[C@@]23O[C@@H]2C[C@@]2(C)[C@@H](CC[C@@]24CCC(=O)O4)[C@H]13 [Eplerenone]
[reply] 47200

----------
- method-notes: Pharmacokinetics and tolerability in subjects with moderate hepatic impairment vs normal healthy subjects
- Format: in vivo, human subjects
- condition-notes: human, in vivo, 400 mg, Multiple Dose, Normal; read-out: AUC (0-24), Least Squares Mean
observed-property: AUC tau at 24 h (ng·h/mL)
Just the number please, in ng·h/mL, no unit attached.

[ask] Can you share its AUC tau at 24 h? I mean this molecule: `COC(=O)[C@@H]1CC2=CC(=O)CC[C@]2(C)[C@@]23O[C@@H]2C[C@@]2(C)[C@@H](CC[C@@]24CCC(=O)O4)[C@H]13`
[reply] 30100

----------
- method-notes: Pharmacokinetics and absorption after IV and oral [14C]eplerenone in the rat
- Type: in vivo
- condition-notes: rat, plasma, iv, 15 mg/kg, plasma clearance (CL) of eplerenone, IV 15 mg/kg, female rat
- Procedure: Plasma, urine and fecal samples were analyzed for total radioactivity.
observed-property: clearance (mL/min/kg)
Just the number please, in mL/min/kg, no unit attached.

[ask] Can you share its clearance? I mean this molecule: COC(=O)[C@@H]1CC2=CC(=O)CC[C@]2(C)[C@@]23O[C@@H]2C[C@@]2(C)[C@@H](CC[C@@]24CCC(=O)O4)[C@H]13 [Eplerenone]
[reply] 20

----------
- method-notes: Pharmacokinetics and tolerability in subjects with moderate hepatic impairment vs normal healthy subjects
- Format: in vivo, human subjects
- condition-notes: human, in vivo, 400 mg, Single Dose, Normal; read-out: AUC (0-∞), Least Squares Mean
observed-property: AUC(0-inf) (ng·h/mL)
Just the number please, in ng·h/mL, no unit attached.

[ask] Can you share its AUC(0-inf)? I mean this compound: `COC(=O)[C@@H]1CC2=CC(=O)CC[C@]2(C)[C@@]23O[C@@H]2C[C@@]2(C)[C@@H](CC[C@@]24CCC(=O)O4)[C@H]13`
[reply] 29100

----------
- method-notes: Pharmacokinetics and absorption after IV and oral [14C]eplerenone in the rat
- Type: in vivo
- condition-notes: rat, plasma, iv, 15 mg/kg, elimination half-life of eplerenone, IV 15 mg/kg, female rat
observed-property: half-life (h)
Just the number please, in h, no unit attached.

[ask] Can you share its half-life? I mean this molecule: `COC(=O)[C@@H]1CC2=CC(=O)CC[C@]2(C)[C@@]23O[C@@H]2C[C@@]2(C)[C@@H](CC[C@@]24CCC(=O)O4)[C@H]13`
[reply] 1.14
